test system: A498 renal; experiment: NCI-60 one-dose screen, 48 h; conditions: 10 µM unless noted
The panel holds about 83,000 compounds, 20% with a hit somewhere; the sample as a whole holds those more often. Calls of active or inactive are those of the source. How the source made its calls: active means growth percent below 10; inactive means the rest.
Answer with one of the outcomes active, inactive

// query Could you kindly confirm the outcome this assay logged for CC(C)(C)N(Cc1ccccc1)N=O ?
// result inactive

// query Could you kindly confirm the outcome this assay logged for NC(Cc1ccc2c(c1)OCO2)c1ccc2c(c1)OCO2 (stereo not drawn) ?
// result inactive

// query Could you kindly confirm the outcome this assay logged for CC1(C)N=C(N)N=C(N)N1c1ccc(OCCCCOc2ccc(S(=O)(=O)F)cc2)c(Cl)c1 ?
// result inactive

Others:
// query Could you kindly confirm the outcome this assay logged for COc1ccc(C2=NN(c3ccccc3)C(c3sc(N(CCCl)CCCl)nc3Cl)C2)cc1 (stereo not drawn) ?
// result inactive

// query Could you kindly confirm the outcome this assay logged for O1[As]2O[As]3O[As]1O[As](O2)O3 ?
// result active

// query Could you kindly confirm the outcome this assay logged for COC(C)(C)CCC[C@H](C)C/C=C/C(C)=C/C(=O)OC(C)C ?
// result inactive

// query Could you kindly confirm the outcome this assay logged for O=[As]c1ccc(C(=O)c2ccc(Oc3ccccc3)cc2)cc1 (stereo not drawn) ?
// result active

====

tested on: HL-60(TB) leukemia; experiment: NCI-60 one-dose screen, 48 h (100 = growth as untreated, 0 = no growth, -100 = all killed); conditions: 10 µM unless noted
This is part of a sample that, as a whole, favours compounds with a hit. Of some 83,000 tested, about 20% had one in any assay.
# reported growth; entries follow
Answer format: numeric, % implied, no suffix.

// query # get_value(readout='growth', item= O=C1c2c(c3c4cccnc4[nH]c3c3ccc4ccccc4c23)C(=O)N1O )
// result 5.07

// query # get_value(readout='growth', item= CN(C)C(=O)Nc1nc2cc(Cl)c(Cl)cc2[nH]1 )
// result -29.9

// query # get_value(readout='growth', item= CC[C@H](Nc1ncnc(N)c1C(N)=O)c1nc2cccc(NCc3ccc(C(=O)NO)cc3)c2c(=O)n1-c1ccccc1 )
// result 126

// query # get_value(readout='growth', item= CCC1(C2CCCC2)NC(=O)NC1=O (centres undefined) )
// result 90.9

// query # get_value(readout='growth', item= COc1ccccc1-c1ccc2nc(NC(=O)Nc3cc(C(F)(F)F)cc(C(F)(F)F)c3)sc2c1 )
// result -34.5

// query # get_value(readout='growth', item= O=C(Nc1ccc(-n2cc(-c3ccncc3)c(-c3ccc(Cl)c(O)c3)n2)cc1)Nc1ccc(Cl)c(C(F)(F)F)c1 )
// result -10.5

Others:
// query # get_value(readout='growth', item= O=C(Cn1cccc(Nc2ccccc2)c1=O)Nc1ccccc1 )
// result 118

// query # get_value(readout='growth', item= Nc1nc2c(ncn2C2OC3COP(=O)(O)OC4C(COP(=O)(O)OC2C3O)OC(n2cnc3c(N)ncnc32)C4O)c(=O)[nH]1 (centres undefined) )
// result 103

// query # get_value(readout='growth', item= O=C(C[P+](c1ccccc1)(c1ccccc1)c1ccccc1)c1ccccc1 )
// result 93.1

====

system: HL-60(TB) leukemia; assay: NCI-60 one-dose screen, 48 h; conditions: 10 µM unless noted
About 83,000 compounds went through this panel and 20% of them were active in at least one assay; those are over-represented in the sample as a whole. Calls of active or inactive are those of the source. The calls were made as follows: active = growth percent below 10; inactive = the rest.
Answer with one of the outcomes 1.0 (active), 0.0 (inactive)

// query Could you kindly confirm the outcome this assay logged for COc1ccc2c(c1)C(=O)/C(=C/c1ccc(OCC(=O)c3ccc(Cl)cc3)cc1)O2 ?
// result 0.0

// query Could you kindly confirm the outcome this assay logged for OCc1cc(CN2CCCCC2)c(O)c2ncccc12 ?
// result 0.0

// query Could you kindly confirm the outcome this assay logged for c1ccc(Cn2cc3c(c2-c2ccccc2)CCc2cnoc2-3)cc1 ?
// result 0.0

// query Could you kindly confirm the outcome this assay logged for COCCOCCOCc1n(Cc2ccc3ccccc3n2)c2ccccc2[n+]1Cc1ccc2ccccc2n1 ?
// result 1.0

// query Could you kindly confirm the outcome this assay logged for COc1ccc(C(Cn2ccnc2)Sc2ccc(Cl)c(Cl)c2)cc1 (centres undefined) ?
// result 0.0

Others:
// query Could you kindly confirm the outcome this assay logged for O=C(Nc1ccc(Cl)c(Cl)c1)Nc1c(Oc2ccc(Cl)c(Cl)c2)ccc(Cl)c1S(=O)(=O)O ?
// result 1.0

// query Could you kindly confirm the outcome this assay logged for OCCOSCCO ?
// result 0.0

// query Could you kindly confirm the outcome this assay logged for CC/C(=N/NC(N)=O)c1ccccc1 ?
// result 0.0

// query Could you kindly confirm the outcome this assay logged for Oc1ccc(Cl)cc1Cc1cc(Cl)cc(Cl)c1O ?
// result 1.0

// query Could you kindly confirm the outcome this assay logged for CC(=O)Oc1cccc(S(=O)(=O)n2cc(C(=O)C(=O)Nc3ccncc3)c3ccccc32)c1 ?
// result 0.0

// query Could you kindly confirm the outcome this assay logged for CCCCCCCCCCCCCCCCCCOc1cccc(CC(=O)OCC[N+](CC)(CC)CC)c1 ?
// result 1.0

// query Could you kindly confirm the outcome this assay logged for Cc1cc2oc(=O)cc(CP(=O)(O)O)c2cc1O ?
// result 0.0

// query Could you kindly confirm the outcome this assay logged for c1ccc(Cc2ccccc2)cc1 ?
// result 0.0
